Value source: patent US20220177587A1

# test system: human CTLA-4 (human) (UniProt P16410)
# Sequence (P16410 36-223): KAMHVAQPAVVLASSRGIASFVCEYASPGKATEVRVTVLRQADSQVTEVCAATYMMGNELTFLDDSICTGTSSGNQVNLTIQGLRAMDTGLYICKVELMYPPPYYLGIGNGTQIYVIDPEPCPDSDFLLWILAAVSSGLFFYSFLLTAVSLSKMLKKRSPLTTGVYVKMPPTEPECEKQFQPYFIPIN
# assay protocol: flow cytometry, CHO cells stably expressing CTLA4
readout name: MFI at 33.3 nM (MFI)
Enter your answer as a number in MFI; do not include the unit.

Solved cases below.
variant CD80 IgV-Fc A26E/V68M/A71G/D90G (Fc fusion) VIHVTKEVKEVATLSCGHNVSVEELEQTRIYWQKEKKMVLTMMSGDMNIWPEYKNRTIFDITNNLSIMILGLRPSDEGTYECVVLKYEKGAFKREHLAEVTLSVKAD = 8670
CD80 IgV-Fc H18Y/E35D/M47V/V68M/L85M (Fc fusion) VIHVTKEVKEVATLSCGYNVSVEELAQTRIYWQKDKKMVLTMMSGDVNIWPEYKNRTIFDITNNLSIMILALRPSDEGTYECVVMKYEKDAFKREHLAEVTLSVKAD = 19300
CD80 IgV-Fc H18Y/V22A/E35D/T41S/M47V/T62N/A71G/A91G (Fc fusion) VIHVTKEVKEVATLSCGYNVSAEELAQTRIYWQKDKKMVLSMMSGDVNIWPEYKNRTIFDINNNLSIVILGLRPSDEGTYECVVLKYEKDGFKREHLAEVTLSVKAD = 10300
CD80 IgV-Fc S15T/H18Y/E35D/M47V/T62A/N64S/A71G/L85Q/D90N (Fc fusion) VIHVTKEVKEVATLTCGYNVSVEELAQTRIYWQKDKKMVLTMMSGDVNIWPEYKNRTIFDIANSLSIVILGLRPSDEGTYECVVQKYEKNAFKREHLAEVTLSVKAD = 11000
variant CD80 IgV-Fc E35D/M47L/V68M/D90G (Fc fusion) VIHVTKEVKEVATLSCGHNVSVEELAQTRIYWQKDKKMVLTMMSGDLNIWPEYKNRTIFDITNNLSIMILALRPSDEGTYECVVLKYEKGAFKREHLAEVTLSVKAD = 27600
variant CD80 IgV-Fc H18Y/M47L/V68M/D90G (Fc fusion) VIHVTKEVKEVATLSCGYNVSVEELAQTRIYWQKEKKMVLTMMSGDLNIWPEYKNRTIFDITNNLSIMILALRPSDEGTYECVVLKYEKGAFKREHLAEVTLSVKAD = 19000
variant CD80 IgV-Fc (inert) H18V/A26K/E35D/M47L/V68M/A71G (Fc fusion) VIHVTKEVKEVATLSCGVNVSVEELKQTRIYWQKDKKMVLTMMSGDLNIWPEYKNRTIFDITNNLSIMILGLRPSDEGTYECVVLKYEKDAFKREHLAEVTLSVKAD = 22900

Query: Which MFI at 33.3 nM reading was recorded for the binder variant CD80 IgV-Fc H18Y/A26E/V68M/D90G (Fc fusion) VIHVTKEVKEVATLSCGYNVSVEELEQTRIYWQKEKKMVLTMMSGDMNIWPEYKNRTIFDITNNLSIMILALRPSDEGTYECVVLKYEKGAFKREHLAEVTLSVKAD ?
Result: 25800
